The reader will find log10 of IC50 measurements below, all made with Receptor-interacting serine/threonine-protein kinase 3 (Homo sapiens, UniProt Q9Y572).
Sequence (Q9Y572 whole entry): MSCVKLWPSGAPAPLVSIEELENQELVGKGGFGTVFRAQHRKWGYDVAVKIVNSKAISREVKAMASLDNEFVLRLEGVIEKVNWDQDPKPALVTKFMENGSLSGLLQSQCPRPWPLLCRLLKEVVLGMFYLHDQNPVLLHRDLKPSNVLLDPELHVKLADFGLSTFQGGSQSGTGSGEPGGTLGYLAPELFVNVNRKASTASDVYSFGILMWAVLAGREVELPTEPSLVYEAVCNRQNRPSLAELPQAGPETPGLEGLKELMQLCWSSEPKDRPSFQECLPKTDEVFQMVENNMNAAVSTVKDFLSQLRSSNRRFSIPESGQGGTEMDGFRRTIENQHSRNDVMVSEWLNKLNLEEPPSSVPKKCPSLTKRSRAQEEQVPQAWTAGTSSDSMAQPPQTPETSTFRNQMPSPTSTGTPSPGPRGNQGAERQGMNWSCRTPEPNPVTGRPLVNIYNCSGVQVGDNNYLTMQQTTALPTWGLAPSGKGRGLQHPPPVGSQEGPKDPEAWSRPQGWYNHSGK
Recall that a logarithmic scale is used here: each number is log10 of IC50 in nM.

Worked examples, 3 compounds total:
Lookup: # lookup: log10 of IC50 of CN1CCN(c2ccc3nc(-c4cccc(-c5cccs5)c4)c(-c4ccncc4)n3n2)CC1
Found: 2.43

Lookup: CCOc1ccc2c(-c3nc4ccc(N5CCN(C)CC5)nn4c3-c3ccncc3)cccc2c1 , same question.
Found: 3.23

Lookup: Let us now turn to CN1CCN(c2ccc3nc(-c4cccc5c4OCO5)c(-c4ccncc4)n3n2)CC1
Found: 3.40

Next:
Lookup: Reported log10 of IC50 for c1cc2c(c(-c3nc4cccnn4c3-c3ccncc3)c1)OCO2 : what is it?
Found: 3.74

Lookup: Next up: CN1CCN(c2ccc3nc(-c4cccc(-c5ccsc5)c4)c(-c4ccncc4)n3n2)CC1
Found: 2.48

Lookup: Queued: COc1ccc2c(-c3nc4ccc(N5CCN(C)CC5)nn4c3-c3ccncc3)cccc2c1
Found: 3.08
